# SYSTEM NAME: PrRPR (Homo sapiens)
# Construct: expressed in transfected cells; host or cells: HEK293, transient
# Sequence (P49683 whole entry): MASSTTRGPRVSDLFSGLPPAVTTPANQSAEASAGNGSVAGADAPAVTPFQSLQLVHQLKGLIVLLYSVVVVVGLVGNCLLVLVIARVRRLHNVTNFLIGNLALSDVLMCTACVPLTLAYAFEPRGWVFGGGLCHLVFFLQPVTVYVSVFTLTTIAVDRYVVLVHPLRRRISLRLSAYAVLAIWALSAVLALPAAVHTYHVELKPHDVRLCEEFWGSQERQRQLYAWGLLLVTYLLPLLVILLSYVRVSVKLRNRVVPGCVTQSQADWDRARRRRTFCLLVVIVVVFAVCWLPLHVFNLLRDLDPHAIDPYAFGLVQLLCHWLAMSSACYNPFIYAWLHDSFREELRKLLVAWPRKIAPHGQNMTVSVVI
# ASSAY COMMENT: IP accumulation assay, endogenous Gαq coupling, PrRPR
# Format: cell-based
# CONDITION NOTES: 10 µM peptide, transiently transfected HEK293 cells, mean of at least three independent experiments
We begin with a simple list: items and their reported IP accumulation, x-fold of basal (mean), PrRPR#.

>  <SUBSTANCE>
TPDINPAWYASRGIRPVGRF-NH2 [PrRP20, human prolactin-releasing peptide, 20 residues, reference compound]

>  <ENDPOINT VALUE>
27.38 x-fold of basal

$$$$
>  <SUBSTANCE>
AGSDPNFLRF-NH2 [FLP-1-2, C. elegans FMRFamide-like peptide, C-terminally amidated, synthesized by SPPS]

>  <ENDPOINT VALUE>
1.27 x-fold of basal

$$$$
>  <SUBSTANCE>
APKPKFIRF-NH2 [FLP-5-1, C. elegans FMRFamide-like peptide, C-terminally amidated, synthesized by SPPS]

>  <ENDPOINT VALUE>
1.41 x-fold of basal

$$$$

Query :: Check the records and state IP accumulation, x-fold of basal (mean), PrRPR# for TSGPLGNLAEELNGYSRKKGGFSFRF-NH2 [QRFP26, human pyroglutamylated RFamide peptide, 26 residues, reference compound]
Result :: 1.91 x-fold of basal
